// provenance: PubChem BioAssay AID1159580

assay_explanation: chemical genetic growth profiling, strain panel (AID 1159580);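 also: tested at 20 µM; growth read once vehicle control cultures reached saturation at 30 °C; 1 = growth at the plate median or of vehicle wells; lower values mean less growth of the strain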
conditions_used: S. cerevisiae deletion strains, growth OD, locus YHR079C, strain IRE1 (second series), active compounds read low
Among all 5,500 compounds or so, about 2,000 (36%) were called active. Roughly 18% stayed inconclusive and do not appear here. The list shows a part of the results.
normalized growth: recorded values
Respond numerically, and do not add a unit to the figure.

Worked cases, answers included:
>>> result_number("COc1cc(O)c2c(=O)c(-c3ccc(O)cc3)coc2c1")
0.947
>>> result_number("CCC1C2CC3C4N(C)c5ccccc5C45CC(C2C5OC(C)=O)N3C1OC(C)=O (centres undefined)")
1
>>> result_number("Nc1nc(N)c2nc(-c3ccccc3)c(N)nc2n1")
1.02
>>> result_number("CC(C)(Oc1ccc(Cl)cc1)C(=O)O")
0.964
>>> result_number("CN1CCOC(c2ccccc2)c2ccccc2C1 (centres undefined)")
1.02
>>> result_number("CC1(C)O[C@@H]2CC3C4CCC5=CC(=O)C=C[C@]5(C)[C@@]4(F)[C@@H](O)C[C@]3(C)[C@]2(C(=O)CO)O1 (some centres undefined)")
0.989
>>> result_number("CC(=O)OC1CC2C(C)(C)CCCC2(C)C2CCC3(C)C(c4ccoc4)OC(=O)C4OC43C12C (centres undefined)")
1.01
>>> result_number("CC(=O)O[C@@H]1CC2C(C)(C)CCC(=O)[C@]2(C)C2CC[C@@]3(C)[C@H](c4ccoc4)OC(=O)C4OC43[C@@]21C (some centres undefined)")
0.99
>>> result_number("COC(=O)C1=C(C)NC(C)=C(C(=O)OCCN(C)Cc2ccccc2)C1c1cccc([N+](=O)[O-])c1 (centres undefined)")
0.982
>>> result_number("C[N+]1(CCCCC[N+]2(C)CCCC2)CCCC1")
1.02

**Query** Can you share its normalized growth? I mean this molecule: `O=c1c(-c2cc(O)c(O)c(O)c2)coc2cc(O)c(O)c(O)c12`
**Result** 0.922

**Query** Can you share its normalized growth? I mean this molecule: `CN1CCc2c(c3ccccc3n2Cc2ccccc2)C1`
**Result** 1.01

**Query** Can you share its normalized growth? I mean this molecule: `O=C(/C=C/c1ccccc1)c1ccc(O)cc1`
**Result** 0.494

**Query** Can you share its normalized growth? I mean this molecule: `CC(=O)Oc1cc(OC(C)=O)c2c(=O)c(-c3ccccc3)coc2c1`
**Result** 0.98

**Query** Can you share its normalized growth? I mean this molecule: `COc1ccc(-c2coc3cc(O)cc(O)c3c2=O)cc1`
**Result** 0.526

**Query** Can you share its normalized growth? I mean this molecule: CC(=O)O[C@@H]1CC2C(C)(C)C(=O)CC[C@]2(C)C2CC[C@@]3(C)[C@H](c4ccoc4)OC(=O)C4OC43[C@@]21C (some centres undefined)
**Result** 1.02

**Query** Can you share its normalized growth? I mean this molecule: CC(=O)O[C@H]1C[C@@H](O)C(C)(C)C2C[C@@H](OC(C)=O)[C@]3(C)C(CC[C@@]4(C)[C@H](c5ccoc5)OC(=O)C5OC543)[C@]21C (some centres undefined)
**Result** 0.99

**Query** Can you share its normalized growth? I mean this molecule: `CC(=O)Oc1cc(-c2coc3cc(OC(C)=O)c(OC(C)=O)c(OC(C)=O)c3c2=O)cc(OC(C)=O)c1OC(C)=O`
**Result** 0.794

**Query** Can you share its normalized growth? I mean this molecule: COC(=O)C[C@H]1C(C)(C)C(=O)[C@@H]2CC3=C4CC(OC)O[C@@H](c5ccoc5)[C@]4(C)CCC3[C@@]1(C)C2=O (some centres undefined)
**Result** 0.996
